- System: Vero E6 infected with SARS-CoV-2
- Assay Name: morphology score (similarity to uninfected cells); higher = more like uninfected cells
- Settings: 24 h

{"Compound": "O=C(NCNC(=O)NC1C(=O)NC(=O)N1CO)NC1C(=O)NC(=O)N1CO (centres undefined) [imidurea] (10 µM)", "morphology score": -0.0758}
{"Compound": "OC[C@H]1O[C@@H](n2cnc3c(NC4CCCC4)nc(Cl)nc32)[C@H](O)[C@@H]1O [2-chloro-N6-cyclopentyladenosine] (10 µM)", "morphology score": 0.106}
{"Compound": "CCC(CO)(C(=O)OC1CC2CCC(C1)[N+]2(C)C)c1ccccc1 (centres undefined) [troventol] (10 µM)", "morphology score": -0.023}
{"Compound": "c1ccc2c(CC3=NCCN3)cccc2c1 [naphazoline] (10 µM)", "morphology score": 0.146}
